Give measured MR Antagonism activity [% of the maximum effect] for each item. Keep answers brief.
# target: mineralcorticoid receptor (Homo sapiens)
# Sequence (P08235 whole entry): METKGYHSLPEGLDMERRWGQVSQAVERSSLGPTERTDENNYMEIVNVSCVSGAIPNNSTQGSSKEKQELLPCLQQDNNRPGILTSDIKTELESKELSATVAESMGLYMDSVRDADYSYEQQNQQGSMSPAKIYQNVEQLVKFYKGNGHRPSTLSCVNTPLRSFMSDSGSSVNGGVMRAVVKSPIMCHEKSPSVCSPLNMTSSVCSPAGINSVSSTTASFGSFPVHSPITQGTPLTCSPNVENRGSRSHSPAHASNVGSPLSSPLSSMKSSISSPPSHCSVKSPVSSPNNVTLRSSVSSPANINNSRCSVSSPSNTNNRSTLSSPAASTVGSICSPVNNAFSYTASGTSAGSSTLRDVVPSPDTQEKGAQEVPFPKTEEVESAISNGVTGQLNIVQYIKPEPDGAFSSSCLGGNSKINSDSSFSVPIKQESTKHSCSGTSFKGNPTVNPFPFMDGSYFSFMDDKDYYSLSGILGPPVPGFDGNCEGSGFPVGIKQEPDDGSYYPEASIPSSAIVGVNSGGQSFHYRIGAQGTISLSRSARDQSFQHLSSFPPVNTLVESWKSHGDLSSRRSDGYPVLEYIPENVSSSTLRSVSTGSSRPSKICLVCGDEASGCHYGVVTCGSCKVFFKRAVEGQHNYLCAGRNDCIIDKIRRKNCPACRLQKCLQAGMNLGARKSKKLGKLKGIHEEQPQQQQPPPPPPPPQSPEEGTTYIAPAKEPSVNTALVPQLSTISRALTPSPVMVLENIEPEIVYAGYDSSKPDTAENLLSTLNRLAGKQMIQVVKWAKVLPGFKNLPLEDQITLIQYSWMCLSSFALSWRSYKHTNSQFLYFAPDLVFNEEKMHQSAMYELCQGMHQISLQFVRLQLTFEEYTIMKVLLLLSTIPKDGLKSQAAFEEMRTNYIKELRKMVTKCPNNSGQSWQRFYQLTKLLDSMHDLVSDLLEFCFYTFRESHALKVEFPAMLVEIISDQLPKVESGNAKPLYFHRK
# experiment: MR antagonism luciferase reporter cell line assay
# Assay type: cell-based
# condition description: reporter cell lines, 16 hours incubation, luciferase luminescence
# Protocol: The derivatives according to the invention having the general chemical formula have a very strong gestagenic activity. […] They should therefore have in vivo potassium-retaining, natriuretic (antimeralcorticoid) action. These properties were determined using the test described below: […]

INPUT: Find the recorded MR Antagonism activity [% of the maximum effect] belonging to C[C@]12CC[C@H]3[C@@H](CC4(CC4)C4=CC(=O)CC[C@@]43C)[C@@H]1CC[C@@H]2C#N and report it.
OUTPUT: 99.16 % of the maximum effect

INPUT: May I ask what MR Antagonism activity [% of the maximum effect] has been recorded for C[C@]12CCC(=O)C=C1CC[C@H]1[C@@H]3[C@@H]4C[C@@H]4[C@](C)(C#N)[C@@]3(C)CC[C@@H]12 ?
OUTPUT: 98.30 % of the maximum effect

INPUT: Field request: MR Antagonism activity [% of the maximum effect] | item: C[C@]12CC[C@H]3[C@@H]([C@H]4C[C@H]4C4=CC(=O)CC[C@@]43C)[C@@H]1[C@@H]1C[C@@H]1[C@@H]2C#N
OUTPUT: 98.06 % of the maximum effect

INPUT: Fill in the blank: the reported MR Antagonism activity [% of the maximum effect] of C=CC[C@]1(C#N)CC[C@H]2[C@@H]3CCC4=CC(=O)CC[C@]4(C)[C@H]3CC[C@@]21C [17α-Allyl-17β-cyanoandrost-4-en-3-one] is ____.
OUTPUT: 65.30 % of the maximum effect
